B1: Azoarcus group I ribozyme (parent)
chain: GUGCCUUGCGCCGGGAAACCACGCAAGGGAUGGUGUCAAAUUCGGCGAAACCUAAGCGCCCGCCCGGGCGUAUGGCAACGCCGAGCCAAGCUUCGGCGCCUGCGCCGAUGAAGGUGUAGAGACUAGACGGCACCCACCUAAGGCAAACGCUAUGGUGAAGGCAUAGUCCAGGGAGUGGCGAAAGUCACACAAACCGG

# Variants of: B1
# measurementDescription: reverse-splicing fitness (ratio to wild type); higher = more active; in vitro selection; Mg2+ level not given
Classification field: condition met = reverse-splicing fitness at or over 0.009; condition not met = reverse-splicing fitness under 0.009.

In: Form field: reverse-splicing fitness at least 0.009? Entry: C82U A111U A120U A145U U176A
Out: condition not met

In: Could you please find out whether C82A A111G A120U A145C C169A U176C has reverse-splicing fitness that meets 0.009 or exceeds it?
Out: condition not met

In: Reported reverse-splicing fitness at or above 0.009? A111U A120C A145U C150G C169G U176C
Out: condition not met

In: Is reverse-splicing fitness for C82G A111C A145G C169U U176C at or above 0.009?
Out: condition met

In: Could you verify whether the entry C82G A120C A145C C150A U176G shows reverse-splicing fitness of no less than 0.009?
Out: condition not met

In: Dear colleague, could you confirm whether A111G A145C C150G C169A U176C has reverse-splicing fitness at or above 0.009?
Out: condition not met

In: # bool: reverse-splicing fitness of A111C A120U A145C C150U C169G >= 0.009
Out: condition met

In: Could you please find out whether A111C A120U A145C C169A U176G has reverse-splicing fitness that meets 0.009 or exceeds it?
Out: condition not met

In: Assess whether reported reverse-splicing fitness for C82G A111G A120C A145G C150G C169G U176A sits at 0.009 or higher.
Out: condition met

In: Evaluate A111G A145C C150A C169G U176G : reverse-splicing fitness at minimum 0.009?
Out: condition not met

In: Would you say C82U A111U A120G A145G C169G U176A shows reverse-splicing fitness at minimum 0.009?
Out: condition met

In: Check if reverse-splicing fitness >= 0.009 (inclusive). Item: C82A A111U C150G C169G U176G
Out: condition not met

In: Kindly determine if reverse-splicing fitness recorded for C82G A111G C169A U176C is above or exactly 0.009.
Out: condition met

In: Determine whether measured reverse-splicing fitness meets or exceeds 0.009 for A111C A120C A145C C169G U176C
Out: condition met

In: Assess whether reported reverse-splicing fitness for C82G A111C A120U A145U C150A U176C sits at 0.009 or higher.
Out: condition not met

In: Tell me whether reverse-splicing fitness is at least 0.009 here: C82A A145C C169G U176C
Out: condition met

In: Textbook exercise: given the entry C82U A111G A120U A145U C169A U176C , state whether its reverse-splicing fitness is greater than or equal to 0.009.
Out: condition not met

In: Is it the case that C82A A111G A120C C150A U176G has reverse-splicing fitness reaching or exceeding 0.009?
Out: condition met

In: State whether the measured reverse-splicing fitness reaches 0.009, counting equality as reaching it, for C82U A145G C150A C169A U176C
Out: condition met

In: Kindly determine if reverse-splicing fitness recorded for C82A A111G A120G C169U U176G is above or exactly 0.009.
Out: condition not met
